- TARGET DESC: mouse PD-L1 protein (mouse, UniProt Q9EP73 19-238, limits assumed)
- Sequence (Q9EP73 19-238 limits assumed): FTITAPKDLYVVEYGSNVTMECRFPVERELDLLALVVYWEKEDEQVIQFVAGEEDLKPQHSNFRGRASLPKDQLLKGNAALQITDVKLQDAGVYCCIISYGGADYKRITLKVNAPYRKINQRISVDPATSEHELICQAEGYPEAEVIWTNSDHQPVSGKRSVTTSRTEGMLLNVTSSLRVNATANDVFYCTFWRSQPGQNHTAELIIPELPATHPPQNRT
- ASSAY NAME: ELISA on coated antigen, column mPD-L1
MEASURED PROPERTY: absorbance at 490 nm
Format: numeric value only, no unit, no commentary.

| BINDER | absorbance at 490 nm |
| --- | --- |
| PDL1-27F8 (antibody, V domains shown, Only FR/CDR pieces are tied to the clone) VH: QVQLVQSGAEVKKPGSSVKVSCKASGGTFSSSAFSWVRQAPGHGLEWMGRIIPMFDMTDYAQRFQGRLTIIADESSSTAYMELSSLRSEDTAVYYCARSNPHYMDVWGQGTTVTVSS VL: QLVLTQPPSVSGAPGQRVTISCTGSNSDIGAGHDVHWYQQIPGTAPKVLIYGNTDRPSGVPDRFSGSKSGTSASLAITGLQAEDEADYYCQSYDSSLSGYVFGTGTKVTVL | 0.1 |

query: Dear colleague, I am looking for the recorded absorbance at 490 nm of the following binder: PDL1-23E5 (antibody, V domains shown, Only FR/CDR pieces are tied to the clone) VH: QVQLVQSGAEVVKPGSSVKVSCKASGDTFSRYAISWVRQAPGQAPEWMGRIIPVLGAANYARKFQDRVTITADISTTTAFMELTSLRSEDTAVYYCARSLSGYSLGAFDVWGPGTLVTVSS VL: QLVLTQPPSVSGAPGQSVSISCIGSNSNIGTPYDVHWYQQIPGEAPKLLIYGSTNRPSGVPDRFSGSRSGSSASLDITGLQADDEAYYYCQSYDRSLGVSDVVFGGGTKLTVL
result: 2.5
